# inhibition at 1 µM per record follows
Target: KDR (VEGFR2) (Homo sapiens (Human), UniProt P35968)
Sequence (P35968 20-1356): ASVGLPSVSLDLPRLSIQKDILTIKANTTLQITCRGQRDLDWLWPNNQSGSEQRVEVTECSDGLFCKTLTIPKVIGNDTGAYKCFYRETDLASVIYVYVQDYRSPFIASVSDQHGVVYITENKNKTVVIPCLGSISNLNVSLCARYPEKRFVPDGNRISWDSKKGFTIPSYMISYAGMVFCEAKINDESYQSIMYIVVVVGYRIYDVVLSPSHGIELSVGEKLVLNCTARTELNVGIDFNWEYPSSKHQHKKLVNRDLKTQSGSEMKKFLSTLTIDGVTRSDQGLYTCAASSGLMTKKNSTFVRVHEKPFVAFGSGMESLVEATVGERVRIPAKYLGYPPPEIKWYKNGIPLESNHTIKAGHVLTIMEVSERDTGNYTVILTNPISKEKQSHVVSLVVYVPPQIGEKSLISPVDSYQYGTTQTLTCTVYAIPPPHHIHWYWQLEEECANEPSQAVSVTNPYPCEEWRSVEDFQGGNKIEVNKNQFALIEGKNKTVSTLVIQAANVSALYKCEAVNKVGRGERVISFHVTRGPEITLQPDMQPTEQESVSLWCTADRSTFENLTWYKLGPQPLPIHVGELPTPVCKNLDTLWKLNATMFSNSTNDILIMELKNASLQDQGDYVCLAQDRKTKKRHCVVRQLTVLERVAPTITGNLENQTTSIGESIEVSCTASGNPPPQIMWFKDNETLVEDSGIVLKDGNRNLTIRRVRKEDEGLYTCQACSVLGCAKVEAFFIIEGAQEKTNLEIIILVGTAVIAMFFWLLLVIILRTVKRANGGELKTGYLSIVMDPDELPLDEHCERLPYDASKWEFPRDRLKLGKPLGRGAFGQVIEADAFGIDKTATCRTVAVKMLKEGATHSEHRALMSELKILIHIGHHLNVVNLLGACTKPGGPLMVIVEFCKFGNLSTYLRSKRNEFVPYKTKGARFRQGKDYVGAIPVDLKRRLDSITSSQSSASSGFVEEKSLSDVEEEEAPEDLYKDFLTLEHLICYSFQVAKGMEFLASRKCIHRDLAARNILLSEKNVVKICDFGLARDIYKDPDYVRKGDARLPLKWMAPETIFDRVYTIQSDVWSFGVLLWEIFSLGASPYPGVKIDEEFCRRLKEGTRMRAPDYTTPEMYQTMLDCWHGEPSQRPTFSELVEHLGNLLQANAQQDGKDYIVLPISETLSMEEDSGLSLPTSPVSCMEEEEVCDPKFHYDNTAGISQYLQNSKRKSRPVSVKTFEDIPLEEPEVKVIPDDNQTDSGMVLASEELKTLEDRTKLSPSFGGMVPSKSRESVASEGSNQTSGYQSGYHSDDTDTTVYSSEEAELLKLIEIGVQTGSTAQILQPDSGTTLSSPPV
Assay: Z′-LYTE kinase inhibition assay (Invitrogen), KDR
Type: biochemical
Conditions: 1 μM compound, Z′-LYTE method; read-out: % inhibition at 1 μM against KDR

Reference set, count: 3
- Molecule smiles: "O=C(Nc1cc(F)c(F)c(C(=O)c2ccc3nccnc3c2)c1)c1cccc(F)c1"
  inhibition at 1 µM: "< 70%"
- Molecule smiles: "O=C(Nc1ccc(Cl)cc1)Nc1ccc(F)c(C(=O)c2ccc3ncc(N4CCOCC4)nc3c2)c1"
  inhibition at 1 µM: "> 89%"
- Molecule smiles: "O=C(Nc1ccc(F)c(C(=O)c2ccc3nccnc3c2)c1F)c1cccc(F)c1"
  inhibition at 1 µM: "< 70%"

// query Returns the measured inhibition at 1 µM for the input compound. Input: O=C(Nc1ccc(Cl)cc1)Nc1cc(F)cc(C(=O)c2ccc3ncc(N4CCOCC4)nc3c2)c1
// result < 70%

// query Fill blank: measured inhibition at 1 µM of the compound O=C(Nc1cc(F)c(F)c(C(=O)c2ccc3nccnc3c2)c1)c1ccc(Cl)c(C(F)(F)F)c1 is ____.
// result 70 to 89%

// query Data request, read-out inhibition at 1 µM, for O=C(Nc1cccc(C(=O)c2ccc3ncc(N4CCOCC4)nc3c2)c1)Nc1ccc(Cl)c(C(F)(F)F)c1
// result > 89%

// query Entry under review: O=C(Nc1ccc(F)cc1)Nc1ccc(F)c(C(=O)c2ccc3ncc(N4CCOCC4)nc3c2)c1 . Reported inhibition at 1 µM?
// result > 89%

----------
Biological target: BRAF (Homo sapiens (Human))
Sequence (P15056 whole entry): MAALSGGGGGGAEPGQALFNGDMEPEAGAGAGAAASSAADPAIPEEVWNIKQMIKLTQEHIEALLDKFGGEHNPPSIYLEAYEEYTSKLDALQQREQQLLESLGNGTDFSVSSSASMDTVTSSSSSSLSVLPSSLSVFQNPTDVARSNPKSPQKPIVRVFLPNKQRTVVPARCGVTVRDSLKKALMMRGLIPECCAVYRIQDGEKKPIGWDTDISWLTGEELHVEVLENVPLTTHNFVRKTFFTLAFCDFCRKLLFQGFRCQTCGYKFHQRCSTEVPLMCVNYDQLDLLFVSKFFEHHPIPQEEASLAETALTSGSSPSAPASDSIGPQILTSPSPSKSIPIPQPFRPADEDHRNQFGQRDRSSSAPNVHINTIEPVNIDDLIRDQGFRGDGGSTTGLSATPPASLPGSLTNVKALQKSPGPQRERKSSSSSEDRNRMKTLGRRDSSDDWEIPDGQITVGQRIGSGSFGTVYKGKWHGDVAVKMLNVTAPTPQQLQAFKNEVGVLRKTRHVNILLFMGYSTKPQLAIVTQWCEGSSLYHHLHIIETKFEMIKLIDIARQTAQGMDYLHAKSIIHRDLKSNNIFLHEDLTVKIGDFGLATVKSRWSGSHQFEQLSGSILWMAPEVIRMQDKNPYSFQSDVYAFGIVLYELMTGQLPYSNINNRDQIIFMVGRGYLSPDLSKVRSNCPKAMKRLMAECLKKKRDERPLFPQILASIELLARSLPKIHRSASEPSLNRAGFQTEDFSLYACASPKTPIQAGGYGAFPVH
Experiment: Z′-LYTE kinase inhibition assay (Invitrogen), BRAF
Format: biochemical
Conditions: 1 μM compound, Z′-LYTE method; read-out: % inhibition at 1 μM against BRAF
Quantity measured: inhibition at 1 µM

Below are worked cases with known answers.
- Compound: "O=C(Nc1cccc(C(=O)c2ccc3nccnc3c2)c1)Nc1cccc(C(F)(F)F)c1 [Compound C009]"
  inhibition at 1 µM: "70 to 89%"
- Compound: "O=C(Nc1cccc(C(F)(F)F)c1)Nc1cc(F)c(F)c(C(=O)c2ccc3nccnc3c2)c1F [Compound C006]"
  inhibition at 1 µM: "< 70%"
- Compound: "O=C(Nc1cccc(C(=O)c2ccc3ncc(-n4ccnc4)nc3c2)c1)c1ccc(Cl)c(C(F)(F)F)c1 [Compound C132]"
  inhibition at 1 µM: "< 70%"

Let us examine a further case.
// query Please report the recorded inhibition at 1 µM for O=C(Nc1ccc(F)c(C(=O)c2ccc3ncc(N4CCOCC4)nc3c2)c1)c1cccc(C(F)(F)F)c1 [Compound C141] .
// result < 70%

----------
Tested on: A375 cells
Experiment: Inhibition of cancer cell growth, MTT assay, A375
Format: cell-based
Settings: Homo sapiens, A-375, 72 h exposure
pIC50: −log10 of the molar value.
In this section, each of the molecules is paired with its reported pIC50.

Consider the worked cases shown below.
- Molecule smiles: "O=C(Nc1cccc(C(=O)c2ccc3ncc(-c4cccnc4)nc3c2)c1)Nc1ccc(Cl)c(C(F)(F)F)c1"
  pIC50: "5.30 to 6.00"
- Molecule smiles: "O=C(Nc1cc(F)cc(C(=O)c2ccc3nccnc3c2)c1)Nc1ccc(Cl)c(C(F)(F)F)c1"
  pIC50: "5.30 to 6.00"
- Molecule smiles: "O=C(Nc1cc(F)c(F)c(C(=O)c2ccc3nccnc3c2)c1F)c1cccc(F)c1"
  pIC50: "< 5.30"
- Molecule smiles: "O=C(Nc1cc(F)cc(Cl)c1)Nc1ccc(F)c(C(=O)c2ccc3nccnc3c2)c1"
  pIC50: "5.30 to 6.00"
- Molecule smiles: "O=C(Nc1cc(F)cc(C(=O)c2ccc3ncc(N4CCOCC4)nc3c2)c1)Nc1ccc(Cl)c(Cl)c1"
  pIC50: "> 6.00"

// query Query for A375 cells: what pIC50 does the record show for O=C(Nc1ccc(F)cc1)Nc1cc(F)cc(C(=O)c2ccc3nccnc3c2)c1 ?
// result < 5.30

// query Give the reported pIC50 for O=C(Nc1ccc(F)c(F)c1)Nc1ccc(F)c(C(=O)c2ccc3ncc(N4CCOCC4)nc3c2)c1 (system: A375 cells).
// result > 6.00

// query Record lookup: for A375 cells, what pIC50 belongs to O=C(Nc1cccc(C(F)(F)F)c1)Nc1ccc(F)c(C(=O)c2ccc3ncc(N4CCOCC4)nc3c2)c1 ?
// result > 6.00

----------
The following compounds are listed with their measured inhibition at 1 µM values.
Target: BRAF V600E (Homo sapiens (Human), UniProt P15056, V600E)
Sequence (P15056 whole entry V600E): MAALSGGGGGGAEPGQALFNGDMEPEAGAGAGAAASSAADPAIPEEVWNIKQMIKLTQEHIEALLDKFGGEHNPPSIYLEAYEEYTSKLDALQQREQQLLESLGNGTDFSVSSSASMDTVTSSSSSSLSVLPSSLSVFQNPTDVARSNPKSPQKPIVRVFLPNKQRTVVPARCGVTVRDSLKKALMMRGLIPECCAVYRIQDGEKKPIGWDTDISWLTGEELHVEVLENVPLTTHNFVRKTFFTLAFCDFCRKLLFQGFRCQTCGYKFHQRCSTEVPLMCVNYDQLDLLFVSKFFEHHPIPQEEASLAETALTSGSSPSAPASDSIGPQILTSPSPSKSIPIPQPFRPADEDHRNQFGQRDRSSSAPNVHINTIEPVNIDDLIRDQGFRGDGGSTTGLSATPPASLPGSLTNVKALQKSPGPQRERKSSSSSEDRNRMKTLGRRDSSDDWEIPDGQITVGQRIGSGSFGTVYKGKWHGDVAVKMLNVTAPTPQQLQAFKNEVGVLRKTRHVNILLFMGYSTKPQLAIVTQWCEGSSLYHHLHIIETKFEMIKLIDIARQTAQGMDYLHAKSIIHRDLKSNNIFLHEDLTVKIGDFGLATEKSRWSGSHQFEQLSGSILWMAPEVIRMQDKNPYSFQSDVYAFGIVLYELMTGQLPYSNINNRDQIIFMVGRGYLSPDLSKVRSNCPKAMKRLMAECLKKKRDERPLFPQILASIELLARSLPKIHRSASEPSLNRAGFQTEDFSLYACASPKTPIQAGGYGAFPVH
Assay: Z′-LYTE kinase inhibition assay (Invitrogen), BRAF V600E
Type: biochemical
Conditions: 1 μM compound, Z′-LYTE method; read-out: % inhibition at 1 μM against BRAF V600E

Known results for compounds:
- Molecule smiles: "O=C(Nc1ccc(F)cc1)Nc1ccc(F)c(C(=O)c2ccc3nccnc3c2)c1"
  inhibition at 1 µM: "> 89%"
- Molecule smiles: "O=C(Nc1cccc(C(=O)c2ccc3ncc(N4CCCC4)nc3c2)c1)c1cccc(C(F)(F)F)c1"
  inhibition at 1 µM: "> 89%"
- Molecule smiles: "O=C(Nc1ccc(Cl)c(Cl)c1)Nc1ccc(F)c(C(=O)c2ccc3nccnc3c2)c1"
  inhibition at 1 µM: "> 89%"
- Molecule smiles: "O=C(Nc1cccc(C(=O)c2ccc3ncc(-c4cccnc4)nc3c2)c1)c1ccc(C(F)(F)F)c(Cl)c1"
  inhibition at 1 µM: "> 89%"

Turning to the following compound.
// query What does the record list as inhibition at 1 µM for O=C(Nc1cccc(C(=O)c2ccc3nccnc3c2)c1)Nc1cc(C(F)(F)F)ccc1Cl ?
// result > 89%

----------
Target: KDR (VEGFR2) (Homo sapiens (Human), UniProt P35968)
Assay: Z′-LYTE kinase inhibition assay (Invitrogen), KDR
Format: biochemical
Conditions: 1 μM compound, Z′-LYTE method; read-out: % inhibition at 1 μM against KDR
Quantity measured: inhibition at 1 µM

- Molecule: "O=C(Nc1cccc(C(=O)c2ccc3ncc(-n4ccnc4)nc3c2)c1)c1ccc(Cl)c(C(F)(F)F)c1 [Compound C132]"
  inhibition at 1 µM: "70 to 89%"
- Molecule: "O=C(Nc1cccc(C(=O)c2ccc3nccnc3c2)c1)c1cccc(C(F)(F)F)c1 [Compound C110]"
  inhibition at 1 µM: "< 70%"

// query Return reported inhibition at 1 µM; argument: O=C(Nc1cc(F)cc(C(=O)c2ccc3ncc(N4CCOCC4)nc3c2)c1)Nc1ccc(Cl)c(C(F)(F)F)c1 [Compound C031]
// result 70 to 89%

// query Please give the measured inhibition at 1 µM for this molecule: O=C(Nc1ccc(F)cc1)Nc1cc(F)cc(C(=O)c2ccc3nccnc3c2)c1 [Compound C064]
// result < 70%

// query Consider the molecule shown here: O=C(Nc1cc(F)c(F)c(C(=O)c2ccc3nccnc3c2)c1F)c1cccc(F)c1 [Compound C108] What is its recorded inhibition at 1 µM?
// result < 70%

----------
Test system: A375 cells
Experiment: Inhibition of cancer cell growth, MTT assay, A375
Assay type: cell-based
Settings: Homo sapiens, A-375, 72 h exposure
pIC50: −log10 of the molar value.
# pIC50 values compiled below

Reference set (2 entries):
- Molecule smiles: "O=C(Nc1ccc(Cl)c(Cl)c1)Nc1ccc(F)c(C(=O)c2ccc3ncc(N4CCOCC4)nc3c2)c1"
  pIC50: "> 6.00"
- Molecule smiles: "NCCNc1cnc2ccc(C(=O)c3cc(NC(=O)Nc4ccc(F)c(F)c4)ccc3F)cc2n1"
  pIC50: "5.30 to 6.00"

Here is the next item to consider.
// query Requested read-out: pIC50. Entry: NCCNc1cnc2ccc(C(=O)c3cc(NC(=O)Nc4cccc(F)c4)ccc3F)cc2n1
// result 5.30 to 6.00

----------
Molecular target: BRAF V600E (Homo sapiens (Human), UniProt P15056, V600E)
Assay: Z′-LYTE kinase inhibition assay (Invitrogen), BRAF V600E
Settings: Z′-LYTE method; read-out: IC50 against BRAF V600E
pIC50: −log10 of the molar value.
Measured pIC50, listed per entry for reference.

- Molecule smiles: "O=C(Nc1cccc(F)c1)Nc1cccc(C(=O)c2ccc3ncc(N4CCCC4)nc3c2)c1"
  pIC50: "> 7.00"
- Molecule smiles: "O=C(Nc1cccc(C(F)(F)F)c1)Nc1cc(F)c(F)c(C(=O)c2ccc3ncc(N4CCOCC4)nc3c2)c1"
  pIC50: "< 7.00"
- Molecule smiles: "O=C(Nc1ccc(F)c(C(=O)c2ccc3ncc(N4CCOCC4)nc3c2)c1)c1ccc(Cl)c(C(F)(F)F)c1"
  pIC50: "< 7.00"

Pending compound:
// query Fill blank: measured pIC50 of the compound O=C(Nc1cccc(C(=O)c2ccc3ncc(N4CCOCC4)nc3c2)c1)Nc1cccc(C(F)(F)F)c1 is ____.
// result > 7.00
